# Tested on: HOP-18
# Assay Text: NCI tumour cell line growth inhibition, 48 h
Active and inactive are the calls of the source. No stated cut-off is given here; in the data, active = GI50 up to about 1.1 µM and inactive = higher.
Please state which outcome applies, choosing from yes for active, no for inactive

## Input What is the recorded call for this molecule in the test? COc1ccc2nc3ccccc3c(NCCCCCN(CCCl)CCCl)c2c1
## Output yes

## Input What call does the record list for CCCCCCCCCCCCCC(=O)OC(/C=C/C(C)C)C(O)C(O)C(OC)C(=O)NC1CCCCNC1=O (stereo not drawn) ?
## Output no

## Input Query: recorded result category for COc1ccc(-c2cc(=O)c3c(O)c(O)c(OC)cc3o2)cc1O in this test
## Output no

## Input Check the results log: what was the call for O=C(CC1(O)C(=O)Nc2c(Cl)cc(Cl)cc21)c1ccc([N+](=O)[O-])cc1 (stereo not drawn) ?
## Output no

## Input Each molecule tested received a call. Report the one for c1cncc(O[Si](Oc2cccnc2)(Oc2cccnc2)Oc2cccnc2)c1 .
## Output no

## Input Could you check what this test reported for CCOC(OC1=C(C#N)CCCC1)C(C)[Se]c1ccccc1 (stereo not drawn) ?
## Output no

## Input Write down the call the test reported for this molecule. Item: CC(C)C/C(CC(=O)CCC(=O)Nc1ccccc1[N+](=O)[O-])=N\NC(=O)c1cc2ccccc2cc1O
## Output no

## Input Test call for this molecule, please: Cc1ccc([S+]([O-])C(C)C(Cl)c2ccccc2)cc1 (stereo not drawn)
## Output no

## Input Recorded test call requested for COC(=O)c1cc2c(c(C(=O)OC)c1O)C(=O)C=CC2=O
## Output no

----------
# Tested on: MOLT-4
# Assay Text: NCI tumour cell line growth inhibition, 48 h
Activity calls are given as the source filed them. No stated cut-off is given here; in the data, active = GI50 up to about 1.1 µM and inactive = higher.
The reply should be one of these categories: true (1) for active, false (0) for inactive

Solved entries (count: 8):
In [3]: df
Out[3]:
                                   compound  measured_target  class_label
0  CCOC(OC1=C(C#N)CCCC1)C(C)[Se]c1ccccc1 (stereo not given)           MOLT-4    false (0)
1  COc1cc(/C=C2\C[C@H]3[C@@H]4CC=C5C[C@@H](N6CCCC6)CC[C@]5(C)[C@H]4CC[C@]3(C)[C@H]2O)cc(OC)c1OC           MOLT-4    false (0)
2          CCCCCCCCCc1nn2c(Cc3ccccc3)nnc2s1           MOLT-4    false (0)
3  Cn1c(=O)c(-c2ccccc2)c(N=[N+]=[N-])c2ccccc21           MOLT-4    false (0)
4  CC1CSc2nc3nc(S)nc-3c(O)n2C1 (stereo not given)           MOLT-4    false (0)
5              N#Cc1c2ccccc2cn1-c1ccc(F)cc1           MOLT-4    false (0)
6  COc1cc(C2c3cc4c(cc3[C@@H](OCCN)[C@H]3COC(=O)C23)OCO4)cc(OC)c1O (stereo not given in full)           MOLT-4     true (1)
7  COCc1cc2c(cc1/C(=C/[N+](=O)[O-])CS(=O)(=O)c1ccccc1)OCO2           MOLT-4    false (0)

## Input I'd appreciate the recorded outcome for COc1ccc(CCN2COc3ccc4ccc(=O)oc4c3C2)cc1OC from this test.
## Output false (0)

## Input Please share the test call associated with COc1cc(N(C)C)c(OC)cc1C=C1C=CC=C1 .
## Output false (0)

// data source = ChEMBL document CHEMBL1201862
